tested on: Streptomyces fradiae NRRL 11271; assay: Antibiotic sensitivity (sensitivity discs), NRRL 11271; format: cell-based; conditions: discs: chloramphenicol 30 μg, erythromycin 15 μg, cephaloridine 30 μg, lincomycin 2 μg, polymyxin B 300 units, streptomycin 10 μg, tetracycline 30 μg, vancomycin 30 μg; note: key: -: resistance (no zones of inhibition); +: sensitivity (zones of inhibition); trace of sensitivity
Measurement Name: Antibiotic sensitivity, NRRL 11271

CC[C@H]1OC(=O)[C@H](C)[C@@H](O[C@H]2C[C@@](C)(OC)[C@@H](O)[C@H](C)O2)[C@H](C)[C@@H](O[C@@H]2O[C@H](C)C[C@H](N(C)C)[C@H]2O)[C@](C)(O)C[C@@H](C)C(=O)[C@H](C)[C@@H](O)[C@]1(C)O
+
CN(C)[C@@H]1C(O)=C(C(N)=O)C(=O)[C@@]2(O)C(O)=C3C(=O)c4c(O)cccc4[C@@](C)(O)[C@H]3C[C@@H]12
+
O=C(Cc1cccs1)N[C@@H]1C(=O)N2C(C(=O)[O-])=C(C[n+]3ccccc3)CS[C@H]12
+

---

tested on: Streptomyces fradiae NRRL 11271; experiment: Antibiotic sensitivity (sensitivity discs), NRRL 11271; type: cell-based; settings: discs: chloramphenicol 30 μg, erythromycin 15 μg, cephaloridine 30 μg, lincomycin 2 μg, polymyxin B 300 units, streptomycin 10 μg, tetracycline 30 μg, vancomycin 30 μg; note: key: -: resistance (no zones of inhibition); +: sensitivity (zones of inhibition); trace of sensitivity
Measurement Name: Antibiotic sensitivity, NRRL 11271

[H]/N=C(/N)N[C@H]1[C@H](O)[C@@H](O)[C@H](O[C@@H]2O[C@@H](C)[C@](O)(C=O)[C@H]2O[C@@H]2O[C@@H](CO)[C@H](O)[C@@H](O)[C@@H]2NC)[C@@H](N/C(N)=N\[H])[C@@H]1O
+
CCC[C@@H]1C[C@@H](C(=O)N[C@@H]([C@H]2O[C@H](SC)[C@H](O)[C@@H](O)[C@H]2O)[C@@H](C)O)N(C)C1
-
CN[C@H](CC(C)C)C(=O)N[C@H]1C(=O)N[C@@H](CC(N)=O)C(=O)N[C@H]2C(=O)N[C@H]3C(=O)N[C@H](C(=O)N[C@H](C(=O)O)c4cc(O)cc(O)c4-c4cc3ccc4O)[C@H](O)c3ccc(c(Cl)c3)Oc3cc2cc(c3O[C@@H]2O[C@H](CO)[C@@H](O)[C@H](O)[C@H]2O[C@H]2C[C@](C)(N)[C@H](O)[C@H](C)O2)Oc2ccc(cc2Cl)[C@H]1O
+
O=C(N[C@H](CO)[C@H](O)c1ccc([N+](=O)[O-])cc1)C(Cl)Cl
+

# credit: patent US4334019A
